testedTarget: T1, Recombinant soluble extracellular domain of cynomolgus monkey MerTK (cynomolgus monkey, UniProt Q12866 21-505 (human entry))
T1 construct: SPR analyte; also called cMerTK; Cynomolgus MerTK
T1 chain: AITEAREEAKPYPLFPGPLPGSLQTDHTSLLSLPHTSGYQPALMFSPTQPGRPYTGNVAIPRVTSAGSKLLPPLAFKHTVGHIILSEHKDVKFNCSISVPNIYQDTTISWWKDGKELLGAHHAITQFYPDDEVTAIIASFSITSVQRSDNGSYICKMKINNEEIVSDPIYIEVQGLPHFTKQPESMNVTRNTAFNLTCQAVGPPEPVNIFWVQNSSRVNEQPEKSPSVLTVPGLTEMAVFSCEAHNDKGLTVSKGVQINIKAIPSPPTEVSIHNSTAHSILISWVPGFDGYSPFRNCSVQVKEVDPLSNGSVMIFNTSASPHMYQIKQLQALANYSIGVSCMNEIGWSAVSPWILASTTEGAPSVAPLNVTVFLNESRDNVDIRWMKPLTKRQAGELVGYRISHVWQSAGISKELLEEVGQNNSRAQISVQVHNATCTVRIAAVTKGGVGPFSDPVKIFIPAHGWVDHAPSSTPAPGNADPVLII
testName: SPR, mAb captured, soluble MerTK ECD as analyte, 37 C
Experimental: MerTK Abs were captured on the chip. Recombinant soluble forms of the extracellular domains of human, cynomolgus monkey, and mouse MerTK polypeptide were injected as analytes at multiple concentrations each. The resulting sensorgrams were double-referenced and fitted to a 1:1 Langmuir binding model with mass transport.
recordedMetric: koff (s⁻¹)
One number for each entry, in s⁻¹.

binder | koff (s⁻¹)
HuMAb 10K11 (antibody, human IgG1, kappa, V domains shown, Human anti-hMerTK mAb, Bin 1) VH: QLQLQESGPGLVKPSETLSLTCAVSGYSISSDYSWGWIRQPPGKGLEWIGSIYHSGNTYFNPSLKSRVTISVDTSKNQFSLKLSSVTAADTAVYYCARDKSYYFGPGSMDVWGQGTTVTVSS VL: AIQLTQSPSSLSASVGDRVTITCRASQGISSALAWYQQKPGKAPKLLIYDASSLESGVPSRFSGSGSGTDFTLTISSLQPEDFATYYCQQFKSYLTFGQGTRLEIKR | 0.00235

Continue with the binder presented below.
Req: Entry under review: HuMAb 1B4 (antibody, human IgG1, kappa, V domains shown, Human anti-hMerTK mAb, Bin 1) VH: QLQLQESGPGLVKPSETLSLTCAVSGYSISSGNYWGWIRQSPGKGLEWIGSVDHSGSTYYSPSLKSRVTISVDTSKNQFSLKLNSVTAADTADYYCARNTMIRGVMDWFDPWGQGTLVTVSS VL: AIQLTQSPSSLSASVGDRVTITCRASQGISSALAWYQQKPGKAPKVLIYDASSLESGVPSRFSGSGSGTDFTLTISSLQPEDFATYYCQQFRSYPTFGQGTKVEIKR . Reported koff?
Resp: 0.00796
